CC50 overview
- System: Vero cells
- Assay Summary: cytotoxicity against Vero cells (resazurin viability assay)
- Run Conditions: read-out: CC50 Vero; Table 2
Observed Property: CC50

Compound	Result
CNC(=O)C1Cc2ccccc2N1C(=O)Cc1ccc(F)cc1 (centres unmarked) [MMV188296]	> 100 µM
N=C(N)Nc1ccc(-c2ccc(-c3ccc(N=C(N)N)c(Cl)c3)o2)cc1Cl [MMV688271]	> 100 µM
CC1CCCCN1C(=O)NCCc1coc(-c2ccc(F)cc2)n1 (centres unmarked) [MMV688797]	> 100 µM
CCCCN(CCCC)c1c(C#N)cc(S(=O)(=O)Nc2ccccc2)cc1C#N [MMV688467]	> 100 µM
c1ccc(Oc2ccc(-c3cc(N4CCNCC4)[nH]n3)cc2)cc1 [MMV687706]	41 µM
N=C(N)c1ccc(-c2cc(-c3ccccc3)on2)cc1 [MMV688514]	17 µM
Cc1nc(-c2ccccn2)nc(N2CCC(Cc3ccccc3)C2)c1Cl (centres unmarked) [MMV659004]	> 100 µM
COc1ccc(C2=NN(C3CCCCCC3)C(=O)[C@@H]3CC=CC[C@H]23)cc1OCCCCOc1ccc(-c2nn[nH]n2)cc1 [MMV690027]	> 100 µM
CC(=O)Nc1ccc(-c2noc(CC3CCCN(Cc4cccc(F)c4C)C3)n2)cc1 (centres unmarked) [MMV689061]	> 100 µM
NCCN(C(=O)c1ccc(Cl)cc1Cl)c1ccc(OCc2ccc(Cl)cc2)cc1 [MMV688371]	7.5 µM
O=C(Nc1ccc2c(c1)B(O)OC2)c1ccccc1C(F)(F)F [MMV652003]	> 100 µM
COc1ccc(S(=O)(=O)Nc2ccc(CN3CCN(C(=O)c4cccc(C#N)c4)CC3)cc2)cc1 [MMV689029]	> 100 µM
Cc1cccnc1NC(=O)c1cccc(OCc2c(C)noc2C)c1 [MMV688793]	> 100 µM
CO[C@@H](C(=O)N1Cc2[nH]nc(NC(=O)c3ccc(N4CCN(C)CC4)cc3)c2C1)c1ccccc1 [MMV676600]	> 100 µM
Cc1ncc(-c2ccnc(Nc3ccc(S(C)(=O)=O)cc3)n2)n1C(C)C [MMV676604]	8.3 µM
COc1ccc(C(=N)N)cc1-c1cn(-c2ccc(C(=N)N)cc2)nn1 [MMV675998]	> 100 µM
O=C(NCCc1ccn(-c2ccccc2)n1)C1CCCCC1 [MMV688795]	> 100 µM
Cc1ccc(S(=O)(=O)Nc2ccc(CN3CCN(C(=O)c4cccc(C#N)c4)CC3)cc2)cc1 [MMV689028]	> 100 µM
Cc1nn(C)c(C)c1NS(=O)(=O)c1c(Cl)cc(-c2ccnc(N3CCNCC3)c2)cc1Cl [MMV688180]	> 100 µM
O=C(NCc1nnc2n1CCCCC2)c1ccc(-c2ccc(F)cc2)o1 [MMV688796]	> 100 µM

====

CC50 overview
- Tested on: Vero cells
- Assay Summary: cytotoxicity against Vero cells (resazurin viability assay)
- Run Conditions: read-out: CC50 Vero; Table 3

Compound	Bound Type	CC50 / µM
CN(C)c1cc(NC(=O)Nc2ccccc2)c2ccccc2n1 [MMV006901]	=	14.6
COc1ccc(CCN2CCC(NCc3cccc(N(C)C)c3)CC2)cc1 [MMV011511]	>	100
O=C(Nc1ccc(C(F)(F)F)c(C(F)(F)F)c1)c1cc(Cl)ccc1O [MMV687807]	=	11
CC(C)n1nc(-c2cc3c(Cl)cccc3[nH]2)c2c(N)ncnc21 [MMV688417]	=	13.6
CC(=O)N1CCc2cc3nc(C)cc(C)c3cc21 [MMV054312]	>	100
Cc1cnc(N2CCN[C@@H](Cc3ccccc3)C2)nc1Oc1ccc(-n2ccnc2)cc1 [MMV687765]	>	100
Cc1[nH]c2ccccc2c1C(c1cccs1)N1CCN(C)CC1 (centres unmarked) [MMV688768]	>	100
c1cncc(NCc2ccc(-c3cc4ccncc4cc3OC3CCNCC3)s2)c1 [MMV023969]	=	26.3
CCc1ccc(S(=O)(=O)Nc2cc(CN3CCN(CCC(C)C)CC3)ccc2C)cc1 [MMV688124]	>	100
Nc1nc2cc(-c3cncc(Oc4ccc(F)cc4)c3)ccc2[nH]1 [MMV687248]	>	100
O=C(Nc1ccccc1)c1ccc(-c2cc3ccncc3cc2OC2CCNCC2)s1 [MMV024035]	=	35.8
CCOC(=O)c1c(NC(=O)c2c(F)c(F)c(F)c(F)c2F)sc(C(N)=O)c1C [MMV153413]	>	100
OCCc1ccc(Nc2nccc(-c3nnc4ccccn34)n2)cc1 [MMV028694]	=	10.4
Brc1cncc(-c2cc(NCCCn3ccnc3)nc(-c3ccccc3)n2)c1 [MMV661713]	>	100
CCOc1ccc2cc(-c3nn(CC4CCN(C)CC4)c4ncnc(N)c34)ccc2c1 [MMV688854]	=	13.4
COc1cccc(-c2nc3c(N4CCCC4)cccc3n2CC2CCCN2)n1 (centres unmarked) [MMV687703]	>	100
O=C(Nc1ccc(N2CCNCC2)nc1)c1oc(-c2ccccc2)nc1C(F)(F)F [MMV024937]	=	14.6
CNc1nnc(Sc2cnn(-c3ccccc3)c(=O)c2Cl)s1 [MMV688763]	=	8.14
Nc1nccc2ccc(-c3ccc4nccn4c3)cc12 [MMV023233]	=	29.8
O=C(Nc1ccc(N2CCNCC2)cc1)c1ccn2ncc(-c3cccc(Cl)c3)c2n1 [MMV022478]	=	11.4

====

- Assay Summary: in vitro
- Run Conditions: African green monkey

Compound	CC50 at 48 h
Cc1ccccc1NCc1ccc2nc(N)nc(N)c2c1Cl	> 100 µM
COc1ccc(NC(=O)c2ccc3nc(N)nc(N)c3c2)cc1OC	> 100 µM
COc1cccc(CNC(=O)c2cnc(N)nc2N)c1	> 100 µM
CC1CS(=O)(=O)CCN1/N=C/c1ccc([N+](=O)[O-])o1 (centres unmarked) [MMV001499, Nifurtimox, reference compound]	> 100 µM
CNCCC(Oc1ccc(C(F)(F)F)cc1)c1ccccc1 (centres unmarked) [MMV001561, fluoxetine, reference compound]	41.5 µM
COc1ccccc1NCc1ccc2nc(N)nc(N)c2c1Cl	20.4 µM
COc1ccc(NCc2cnc(N)nc2N)cc1	> 100 µM
COc1ccccc1NCc1ccc2nc(N)nc(N)c2c1	24.8 µM
O=C(Cn1ccnc1[N+](=O)[O-])NCc1ccccc1 [MMV688773, Benznidazole, reference compound]	> 100 µM
N=C(N)c1ccc(OCCCCCOc2ccc(C(=N)N)cc2)cc1 [Pentamidine, reference compound]	> 100 µM
COc1cccc(CNC(=O)c2ccc3nc(N)nc(N)c3c2)c1	> 100 µM
Cc1ccccc1NC(=O)c1cnc(N)nc1N	> 100 µM
COc1ccc(NC(=O)c2ccc3nc(N)nc(N)c3c2)cc1	22.9 µM
COc1ccc(NC(=O)c2cnc(N)nc2N)cc1	> 100 µM
COc1ccc(NCc2ccc3nc(N)nc(N)c3c2)cc1	30.9 µM
COc1ccc(NCc2ccc3nc(N)nc(N)c3c2Cl)cc1	16.9 µM
OC(c1cc(C(F)(F)F)nc2c(C(F)(F)F)cccc12)C1CCCCN1 (centres unmarked) [MMV000016, Mefloquine, reference compound]	11.3 µM
COc1cccc(CNCc2cnc(N)nc2N)c1	> 100 µM
COc1ccccc1NCc1cnc(N)nc1N	> 100 µM
Cc1ccccc1NCc1ccc2nc(N)nc(N)c2c1	22 µM
COc1ccccc1NC(=O)c1ccc2nc(N)nc(N)c2c1	> 100 µM
COc1ccc(NC(=O)c2cnc(N)nc2N)cc1OC	> 100 µM
COc1cc([C@@H]2c3cc4c(cc3[C@H](O)[C@H]3COC(=O)[C@H]23)OCO4)cc(OC)c1OC [Podophyllotoxin, reference compound]	0.43 µM
COc1ccccc1NC(=O)c1cnc(N)nc1N	> 100 µM
Nc1nc(N)c2cc(CNc3cc(Cl)ccc3Cl)ccc2n1	78.2 µM
COc1ccc(OC)c(NCc2ccc3nc(N)nc(N)c3c2Cl)c1	> 100 µM
Nc1ncc(C(=O)Nc2cccnc2)c(N)n1	> 100 µM
CCN(CC)CCCCCCNc1cc(OC)cc2c(C)ccnc12 [MMV000063, Sitamaquine, reference compound]	> 100 µM
COc1ccc(NCc2ccc3nc(N)nc(N)c3c2Cl)cc1OC	18.2 µM
Cc1ccc(C(=O)Nc2ccc(S(=O)(=O)O)c3cc(S(=O)(=O)O)cc(S(=O)(=O)O)c23)cc1NC(=O)c1cccc(NC(=O)Nc2cccc(C(=O)Nc3cc(C(=O)Nc4ccc(S(=O)(=O)O)c5cc(S(=O)(=O)O)cc(S(=O)(=O)O)c45)ccc3C)c2)c1 [MMV637953, Suramine, reference compound]	> 100 µM
COc1ccc(NCc2ccc3nc(N)nc(N)c3c2)cc1OC	> 100 µM
Cc1ccccc1NC(=O)c1ccc2nc(N)nc(N)c2c1	> 100 µM
